- Test system: HT29 colon
- PROTOCOL_NOTES: NCI tumour cell line growth inhibition, 48 h
Assign TGI to each entry below.

Use these answered entries as a reference point.
CC1=C(C(=O)Nc2ccc3[nH]ncc3c2)C(c2ccc(F)cc2)NC(=O)N1 (stereo unspecified) ... > 25 µM
Cc1ccc(-n2c(O)c3c(N)n[nH]c3c(C#N)c2=O)cc1 ... > 100 µM
CCNC(=O)/C=C/CCC#Cc1ccc(-c2ccc(-c3cccs3)s2)s1 ... > 100 µM
N/N=C1/C(=N/O)CCc2nonc21 ... > 100 µM
O=c1[nH]c(=O)n(C2CC(O)C(CO)O2)cc1C(OCC(F)(F)F)OCC(F)(F)F (stereo unspecified) ... > 100 µM

Please find the next compound below.
QUERY: What reported TGI corresponds to O=c1[nH]c(-c2ccccc2)nc2ccc(Cl)cc12 on HT29 colon?
RESULT: > 100 µM
